For each record, write down the corresponding melting point.

# return recorded melting point for entry CCOC(=O)C[C@@H](NC(=O)/C=C/S(=O)(=O)c1ccccc1)C(=O)OCC
112 to 115 °C

# return recorded melting point for entry O=C(CCC(F)([N+](=O)[O-])[N+](=O)[O-])NNC(=O)C(F)(F)C(F)(F)C(F)(F)F
143 to 144 °C

# return recorded melting point for entry Cn1cc(-c2cccc(N3Cc4cc(C(C)(C)C)ccc4C3=O)c2CO)cc(Nc2ccc(C3CN(C(=O)OC(C)(C)C)C3)cn2)c1=O
151 to 152 °C

# return recorded melting point for entry CCOC(=O)c1cccc([N+](=O)[O-])c1NC(=O)OC(C)(C)C
104 to 105 °C

# return recorded melting point for entry Cn1ccnc1SCC(=O)Nc1ccc(-c2ccccc2)cc1
151 to 154 °C

# return recorded melting point for entry COc1ccc2c(Cc3c(Cl)cncc3Cl)nnc(CN3CCOCC3)c2c1
203 to 206 °C

# return recorded melting point for entry C=CCc1cc(C2=NNC(=O)CC2)ccc1OCC1CO1 (stereo not drawn)
92.5 to 95 °C

# return recorded melting point for entry CCOC(=O)[C@H](C)Nc1c(C)cc(C)cc1C
81 to 83 °C
